Recorded values, source patent US10214508B2.

- test_target: human M1 receptor (hCHRM1) (Homo sapiens)
- Construct: expressed in transfected cells
- experimental_details: Measurement of M1 receptor positive allosteric modulator (M1PAM) activity, calcium fluorescence (FLIPRtetra)
- Assay type: cell-based
- condition_details: 10 μM test compound with acetylcholine at EC20 (final 0.6-0.8 nM); 100% = acetylcholine 1 μM, 0% = DMSO; CHO-K1 cells expressing hCHRM1
- Experimental: Measurement of M1 Receptor Positive Allosteric Modulator (M1PAM) Activity The activity of a test compound in the presence of acetylcholine at EC20 concentration (final concentration 0.6-0.8 nM), which affords an action corresponding to about 20% of the maximum activity, was measured as PAM activity. The method is as follows. […]
property: activity (%) at 10 μM
A number alone suffices; assume %.

Worked examples, 4 compounds total:
COc1nc(C(=O)N[C@H]2CCC[C@@H]2O)cc(Cc2ccc(-n3cccn3)cc2)c1C | 105
Cc1cnc(C(=O)N[C@H]2CCCC[C@@H]2O)cc1Cc1ccc(-c2ccn(C)n2)cc1 | 91
Cc1ccc(Cc2cc(C(=O)N[C@H]3CCCC[C@@H]3O)nc(C)c2Cl)cn1 | 95
COc1cnc(C(=O)N[C@H]2COCC[C@@H]2O)cc1Cc1ccc(-n2cccn2)cc1 | 103

Prompt line: Which activity (%) at 10 μM reading was recorded for the compound `Cc1nc(C(=O)N[C@H]2CCCC[C@@H]2O)cc(Cc2ccc(C#N)nc2)c1Cl` ?
Response line: 102

Prompt line: Which activity (%) at 10 μM reading was recorded for the compound `Cc1nc(C(=O)N[C@H]2CCCC[C@@H]2O)cc(Cc2ccc(-c3ccn(C)n3)nc2)c1C` ?
Response line: 103

Prompt line: Which activity (%) at 10 μM reading was recorded for the compound Cc1cnc(C(=O)NC2CC(F)(F)CCC2O)cc1Cc1ccc(-c2ccn(C)n2)cc1 (centres unmarked) ?
Response line: 85

Prompt line: Which activity (%) at 10 μM reading was recorded for the compound `C=Cc1cnc(C(=O)N[C@H]2CCCC[C@@H]2O)cc1Cc1ccc(-n2cccn2)cc1` ?
Response line: 106

Prompt line: Which activity (%) at 10 μM reading was recorded for the compound `Cc1nc(C(=O)N[C@H]2CCCC[C@@H]2O)cc(Cc2ccc(-c3ccn(C)n3)cc2)c1C` ?
Response line: 97

* * *

- test_target: human M1 receptor (hCHRM1) (Homo sapiens, UniProt P11229)
- Construct: expressed in transfected cells
- experimental_details: Measurement of M1 receptor positive allosteric modulator (M1PAM) activity, calcium fluorescence (FLIPRtetra)
- Format: cell-based
- condition_details: 10 μM test compound with acetylcholine at EC20 (final 0.6-0.8 nM); 100% = acetylcholine 1 μM, 0% = DMSO; CHO-K1 cells expressing hCHRM1
property: activity (%) at 10 μM
A number alone suffices; assume %.

Cc1nc(C(=O)N[C@H]2CCC[C@@H]2O)cc(Cc2ccc(-c3ccn(C)n3)cc2)c1C [Example 72] | 105
Cc1cc(Cc2ccc(-n3cccn3)cc2)cc(C(=O)N[C@H]2CCCC[C@@H]2O)n1 [Example 70] | 87

Prompt line: Which activity (%) at 10 μM reading was recorded for the compound Cc1cnc(C(=O)NC2CCC(F)(F)CC2)cc1Cc1ccc(-c2ccn(C)n2)cc1 [Example 33] ?
Response line: 71

Prompt line: Which activity (%) at 10 μM reading was recorded for the compound O=C(N[C@H]1CCCC[C@@H]1O)c1cc(Cc2ccc(-n3cccn3)cc2)c(OC(F)F)cn1 [Example 94] ?
Response line: 101

Prompt line: Which activity (%) at 10 μM reading was recorded for the compound COc1nc(C(=O)N[C@H]2CCCC[C@@H]2O)cc(Cc2ccc(-c3ccn(C)n3)cc2)c1C [Example 88] ?
Response line: 99

Prompt line: Which activity (%) at 10 μM reading was recorded for the compound Cc1cnc(C(=O)N[C@H]2COCC[C@@H]2O)cc1Cc1ccc(-n2cccn2)cc1F [Example 17] ?
Response line: 98

* * *

- test_target: human M1 receptor (hCHRM1) (Homo sapiens)
- Construct: expressed in transfected cells
- experimental_details: Measurement of M1 receptor positive allosteric modulator (M1PAM) activity, calcium fluorescence (FLIPRtetra)
- Type: cell-based
- condition_details: 10 μM test compound with acetylcholine at EC20 (final 0.6-0.8 nM); 100% = acetylcholine 1 μM, 0% = DMSO; CHO-K1 cells expressing hCHRM1
property: activity (%) at 10 μM
A number alone suffices; assume %.

Prompt line: Which activity (%) at 10 μM reading was recorded for the molecule `Cc1cnc(C(=O)N[C@H]2CCC[C@@H]2O)cc1Cc1ccc(-c2ccn(C)n2)cc1` ?
Response line: 86

Prompt line: Which activity (%) at 10 μM reading was recorded for the molecule `Cc1nc(C(=O)N[C@H]2CCC[C@@H]2O)cc(Cc2ccc(-n3cccn3)cc2)c1C` ?
Response line: 102

Prompt line: Which activity (%) at 10 μM reading was recorded for the molecule `O=C(N[C@H]1COCC[C@@H]1O)c1cc(Cc2ccc(-n3cccn3)cc2)c(C2CC2)cn1` ?
Response line: 96

Prompt line: Which activity (%) at 10 μM reading was recorded for the molecule `CCc1cnc(C(=O)N[C@H]2COCC[C@@H]2O)cc1Cc1ccc(-n2cccn2)cc1` ?
Response line: 92

Prompt line: Which activity (%) at 10 μM reading was recorded for the molecule COc1cnc(C(=O)N[C@H]2CCCC[C@@H]2O)cc1Cc1ccc(-c2cnn(C)c2)nc1 (relative stereo) [Example 58] ?
Response line: 89

Prompt line: Which activity (%) at 10 μM reading was recorded for the molecule `Cc1cnc(C(=O)NC2COC2)cc1Cc1ccc(-c2ccn(C)n2)cc1` ?
Response line: 59

* * *

- test_target: human M1 receptor (hCHRM1) (Homo sapiens)
- Construct: expressed in transfected cells
- experimental_details: Measurement of M1 receptor positive allosteric modulator (M1PAM) activity, calcium fluorescence (FLIPRtetra)
- Assay type: cell-based
- condition_details: 10 μM test compound with acetylcholine at EC20 (final 0.6-0.8 nM); 100% = acetylcholine 1 μM, 0% = DMSO; CHO-K1 cells expressing hCHRM1
property: activity (%) at 10 μM
A number alone suffices; assume %.

Prompt line: // map Cc1cnc(C(=O)NC2CCCOC2)cc1Cc1ccc(-c2ccn(C)n2)cc1 (centres unmarked) to recorded activity (%) at 10 μM (system: human M1 receptor (hCHRM1) (Homo sapiens))
Response line: 101

* * *

- test_target: human M1 receptor (hCHRM1) (Homo sapiens)
- Construct: expressed in transfected cells
- Sequence (P11229 1-460): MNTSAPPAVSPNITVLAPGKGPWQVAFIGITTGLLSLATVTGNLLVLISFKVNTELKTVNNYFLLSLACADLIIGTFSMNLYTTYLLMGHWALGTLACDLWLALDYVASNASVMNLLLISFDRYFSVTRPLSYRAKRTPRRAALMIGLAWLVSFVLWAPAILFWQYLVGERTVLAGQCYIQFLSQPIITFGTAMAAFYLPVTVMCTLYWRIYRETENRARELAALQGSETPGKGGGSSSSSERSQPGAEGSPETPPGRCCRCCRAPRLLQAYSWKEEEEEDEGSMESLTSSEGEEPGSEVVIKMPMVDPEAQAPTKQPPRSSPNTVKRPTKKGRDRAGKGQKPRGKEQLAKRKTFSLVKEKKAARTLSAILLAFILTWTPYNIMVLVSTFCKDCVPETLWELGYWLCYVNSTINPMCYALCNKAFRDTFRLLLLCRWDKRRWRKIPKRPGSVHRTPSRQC
- experimental_details: Measurement of M1 receptor positive allosteric modulator (M1PAM) activity, calcium fluorescence (FLIPRtetra)
- Format: cell-based
- condition_details: 10 μM test compound with acetylcholine at EC20 (final 0.6-0.8 nM); 100% = acetylcholine 1 μM, 0% = DMSO; CHO-K1 cells expressing hCHRM1
Catalogue of compounds with associated activity (%) at 10 μM
A number alone suffices; assume %.

Worked examples, 5 compounds total:
Cc1cnc(C(=O)NC2(CO)CC2)cc1Cc1ccc(-c2ccn(C)n2)cc1 | 84
Cc1cnc(C(=O)N[C@H]2CCC[C@@H]2O)cc1Cc1ccc(-n2cccn2)cc1 [Example 5] | 91
CCn1cc(-c2ccc(Cc3cc(C(=O)N[C@H]4CCCC[C@@H]4O)nc(C)c3Cl)cn2)cn1 | 114
COc1ccc(Cc2cc(C(=O)N[C@H]3COCC[C@@H]3O)nc(C)c2Cl)cn1 | 104
Cc1cnc(C(=O)N[C@H]2CCC[C@@H]2O)cc1Cc1ccc(-n2cccn2)nc1 | 96

Okay, now this compound:
Prompt line: Which activity (%) at 10 μM reading was recorded for the compound `O=C(N[C@H]1CCCC[C@@H]1O)c1cc(Cc2ccc(-n3cccn3)cc2)c(C(F)F)cn1` ?
Response line: 101

* * *

- test_target: human M1 receptor (hCHRM1) (Homo sapiens, UniProt P11229)
- Construct: expressed in transfected cells
- experimental_details: Measurement of M1 receptor positive allosteric modulator (M1PAM) activity, calcium fluorescence (FLIPRtetra)
- Format: cell-based
- condition_details: 10 μM test compound with acetylcholine at EC20 (final 0.6-0.8 nM); 100% = acetylcholine 1 μM, 0% = DMSO; CHO-K1 cells expressing hCHRM1
Catalogue of compounds with associated activity (%) at 10 μM
A number alone suffices; assume %.

Worked examples, 3 compounds total:
Cc1cnc(C(=O)NC2CCOCC2O)cc1Cc1ccc(-c2ccn(C)n2)cc1 (stereo not shown) [Example 21] | 89
COc1ccc(Cc2cc(C(=O)N[C@H]3CCCC[C@@H]3O)nc(C)c2Cl)cn1 [Example 105] | 100
Cc1nc(C(=O)N[C@H]2COCC[C@@H]2O)cc(Cc2ccc(-n3cccn3)cc2)c1Cl [Example 99] | 96

Prompt line: Which activity (%) at 10 μM reading was recorded for the compound Cc1nc(C(=O)N[C@H]2CCCC[C@@H]2O)cc(Cc2ccc(-c3ccn(C)n3)cc2)c1C#N [Example 114] ?
Response line: 94
